Molecular target: human TLR8 (Homo sapiens (Human), UniProt Q9NR97)
Sequence (Q9NR97 27-1041): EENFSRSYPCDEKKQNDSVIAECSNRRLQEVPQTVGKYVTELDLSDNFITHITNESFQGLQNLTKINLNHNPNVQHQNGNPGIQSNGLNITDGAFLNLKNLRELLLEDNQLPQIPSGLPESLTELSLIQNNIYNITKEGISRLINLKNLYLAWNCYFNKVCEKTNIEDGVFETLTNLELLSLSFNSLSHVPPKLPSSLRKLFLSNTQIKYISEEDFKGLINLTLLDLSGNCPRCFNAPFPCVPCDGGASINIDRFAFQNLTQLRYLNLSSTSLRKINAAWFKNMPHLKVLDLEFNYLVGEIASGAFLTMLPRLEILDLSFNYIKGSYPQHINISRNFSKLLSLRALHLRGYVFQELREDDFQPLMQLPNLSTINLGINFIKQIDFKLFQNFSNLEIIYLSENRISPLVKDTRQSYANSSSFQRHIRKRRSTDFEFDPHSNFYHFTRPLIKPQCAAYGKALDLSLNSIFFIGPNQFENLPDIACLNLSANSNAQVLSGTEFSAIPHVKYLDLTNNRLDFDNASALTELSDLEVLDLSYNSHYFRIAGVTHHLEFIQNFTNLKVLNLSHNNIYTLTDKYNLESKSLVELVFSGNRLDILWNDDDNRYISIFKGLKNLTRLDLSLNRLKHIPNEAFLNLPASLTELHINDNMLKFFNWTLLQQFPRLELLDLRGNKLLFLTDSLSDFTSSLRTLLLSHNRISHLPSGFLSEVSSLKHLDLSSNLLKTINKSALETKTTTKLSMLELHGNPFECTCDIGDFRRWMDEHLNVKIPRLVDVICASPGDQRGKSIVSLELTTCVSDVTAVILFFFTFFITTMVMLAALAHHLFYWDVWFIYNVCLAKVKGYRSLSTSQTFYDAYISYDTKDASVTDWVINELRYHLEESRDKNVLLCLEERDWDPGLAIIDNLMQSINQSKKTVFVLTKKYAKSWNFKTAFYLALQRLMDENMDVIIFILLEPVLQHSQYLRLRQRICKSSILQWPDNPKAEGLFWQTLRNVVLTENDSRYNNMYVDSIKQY
Test: TLR8 inhibition reporter assay (HEK-Blue SEAP);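 further: SEAP driven by IFN-β minimal promoter carrying NF-κB and AP-1 sites, compounds dosed 0.05 nM to 50 µM for 22 h, inhibition scaled between agonist-plus-DMSO and reference-inhibitor wells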
Details: read-out: TLR8 IC50; HEK-Blue cells overexpressing human TLR8, SEAP reporter, R848 15.9 μM
PROPERTY NAME: pIC50
Friendly reminder that pIC50 comes from taking -log10 of the concentration in mol/L.

[[record]]
compound = "Cc1c(-c2[nH]c3ccc(C4CCC(N(C)Cc5c[nH]nn5)CC4)nc3c2C(C)C)cn2ncnc2c1C (stereo not drawn) [Example 397]"
tested_on = "human TLR8 (Homo sapiens (Human), UniProt Q9NR97)"
assay_value = 8.00


Incoming: Answer with the recorded pIC50 for the compound listed here: Cc1c(-c2[nH]c3ccc(C4CCC(N(CC#N)CCS(C)(=O)=O)CC4)nc3c2C(C)C)cn2ncnc2c1C (stereo not drawn) [Example 457]
Outgoing: 9.52

Incoming: Answer with the recorded pIC50 for the compound listed here: COc1cc(-c2[nH]c3ccc(C4CN(C(=O)CN(C)C)C4)nc3c2C(C)C)cn2ncnc12 [Example 652]
Outgoing: 7.66

###

# pIC50 per record follows
Biological target: human TLR9 (Homo sapiens (Human))
Sequence (Q9NR96 26-1032): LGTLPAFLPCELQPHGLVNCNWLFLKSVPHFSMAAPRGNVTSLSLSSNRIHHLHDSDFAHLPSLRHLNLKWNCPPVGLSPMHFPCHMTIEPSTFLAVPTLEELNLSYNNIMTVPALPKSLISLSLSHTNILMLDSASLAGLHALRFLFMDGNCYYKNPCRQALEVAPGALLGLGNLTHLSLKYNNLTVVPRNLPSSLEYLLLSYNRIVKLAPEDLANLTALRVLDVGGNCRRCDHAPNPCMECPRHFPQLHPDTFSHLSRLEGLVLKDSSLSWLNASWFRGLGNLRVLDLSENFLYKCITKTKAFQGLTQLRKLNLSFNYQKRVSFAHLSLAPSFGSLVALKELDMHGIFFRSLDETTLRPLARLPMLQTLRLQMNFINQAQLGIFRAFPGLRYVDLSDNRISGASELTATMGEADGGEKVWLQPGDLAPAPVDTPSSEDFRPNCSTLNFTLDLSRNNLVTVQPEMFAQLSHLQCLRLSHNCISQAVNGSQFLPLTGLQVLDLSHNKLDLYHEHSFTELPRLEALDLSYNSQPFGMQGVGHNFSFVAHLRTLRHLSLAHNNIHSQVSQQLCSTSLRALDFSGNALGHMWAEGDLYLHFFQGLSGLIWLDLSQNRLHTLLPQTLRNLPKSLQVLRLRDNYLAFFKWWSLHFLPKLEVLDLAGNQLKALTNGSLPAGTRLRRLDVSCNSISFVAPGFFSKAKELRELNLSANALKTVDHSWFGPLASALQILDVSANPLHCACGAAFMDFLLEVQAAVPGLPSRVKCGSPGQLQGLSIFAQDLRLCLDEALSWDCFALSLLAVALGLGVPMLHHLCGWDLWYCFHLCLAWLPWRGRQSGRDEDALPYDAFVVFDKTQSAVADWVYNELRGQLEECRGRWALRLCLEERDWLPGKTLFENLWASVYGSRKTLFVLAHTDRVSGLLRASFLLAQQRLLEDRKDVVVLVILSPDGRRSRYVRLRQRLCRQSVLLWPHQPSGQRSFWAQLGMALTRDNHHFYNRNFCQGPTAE
Experiment: TLR9 inhibition reporter assay (HEK-Blue SEAP)
Conditions: read-out: TLR9 IC50; HEK-Blue cells overexpressing human TLR9, ODN2006 5 nM stimulation, SEAP reporter
Friendly reminder that pIC50 comes from taking -log10 of the concentration in mol/L.

Solved cases below.
[[record]]
molecule = "Cc1c(-c2[nH]c3ccc(C4CCC(N5CCOCC5)CC4)nc3c2C(C)C)cn2ncnc2c1C (stereo not drawn) [Example 362]"
tested_on = "human TLR9 (Homo sapiens (Human))"
property_name = "pIC50"
assay_value = 5.79

[[record]]
molecule = "CC(C)c1c(-c2cn(C)c3ncccc23)[nH]c2ccc(N3CC(NC4CCOCC4)C3)nc12 [Example 33]"
tested_on = "human TLR9 (Homo sapiens (Human))"
property_name = "pIC50"
assay_value = 5.72

[[record]]
molecule = "Cc1c(-c2[nH]c3ccc(C4CCC(N5CCCC5)CC4)nc3c2C(C)C)cn2ncnc2c1C (stereo not drawn) [Example 360]"
tested_on = "human TLR9 (Homo sapiens (Human))"
property_name = "pIC50"
assay_value = 5.85

[[record]]
molecule = "COc1cc(-c2[nH]c3ccc(N4CCN(CC(C)C)CC4)nc3c2C(C)C)cn2ncnc12 [Example 109]"
tested_on = "human TLR9 (Homo sapiens (Human))"
property_name = "pIC50"
assay_value = 5.10


Incoming: Determine reported pIC50 for COc1cc(-c2[nH]c3ccc(C4CCC(N(C)CC(=O)N(C)C)CC4)nc3c2C(C)C)cn2ncnc12 (stereo not drawn) [Example 211] ; test system: human TLR9 (Homo sapiens (Human)).
Outgoing: 6.23

Incoming: Determine reported pIC50 for COCc1cc(-c2[nH]c3ccc(C4CCC(NCC(=O)N(C)C)CC4)nc3c2C(C)C)cn2ncnc12 (stereo not drawn) [Example 230] ; test system: human TLR9 (Homo sapiens (Human)).
Outgoing: 5.61

Incoming: Determine reported pIC50 for Cc1c(-c2[nH]c3ccc(N4CCNC[C@@H]4C)nc3c2C(C)C)cn2ncnc2c1C [Example 152] ; test system: human TLR9 (Homo sapiens (Human)).
Outgoing: 5.23

Incoming: Determine reported pIC50 for CCn1cc(-c2[nH]c3ccc(C4CCC(NCC(=O)N(C)C)CC4)nc3c2C(C)C)c2cccnc21 (stereo not drawn) [Example 291] ; test system: human TLR9 (Homo sapiens (Human)).
Outgoing: 6.13

Reference source: patent US10544143B2
